target: SMARCA2 (Homo sapiens, UniProt P51531); construct: endogenous in cells; test: SMARCA2 Cellular Degradation Assay (Western blot analysis on Jess platform); type: cell-based; settings: cellular degradation
Sequence (P51531 whole entry, species assumed): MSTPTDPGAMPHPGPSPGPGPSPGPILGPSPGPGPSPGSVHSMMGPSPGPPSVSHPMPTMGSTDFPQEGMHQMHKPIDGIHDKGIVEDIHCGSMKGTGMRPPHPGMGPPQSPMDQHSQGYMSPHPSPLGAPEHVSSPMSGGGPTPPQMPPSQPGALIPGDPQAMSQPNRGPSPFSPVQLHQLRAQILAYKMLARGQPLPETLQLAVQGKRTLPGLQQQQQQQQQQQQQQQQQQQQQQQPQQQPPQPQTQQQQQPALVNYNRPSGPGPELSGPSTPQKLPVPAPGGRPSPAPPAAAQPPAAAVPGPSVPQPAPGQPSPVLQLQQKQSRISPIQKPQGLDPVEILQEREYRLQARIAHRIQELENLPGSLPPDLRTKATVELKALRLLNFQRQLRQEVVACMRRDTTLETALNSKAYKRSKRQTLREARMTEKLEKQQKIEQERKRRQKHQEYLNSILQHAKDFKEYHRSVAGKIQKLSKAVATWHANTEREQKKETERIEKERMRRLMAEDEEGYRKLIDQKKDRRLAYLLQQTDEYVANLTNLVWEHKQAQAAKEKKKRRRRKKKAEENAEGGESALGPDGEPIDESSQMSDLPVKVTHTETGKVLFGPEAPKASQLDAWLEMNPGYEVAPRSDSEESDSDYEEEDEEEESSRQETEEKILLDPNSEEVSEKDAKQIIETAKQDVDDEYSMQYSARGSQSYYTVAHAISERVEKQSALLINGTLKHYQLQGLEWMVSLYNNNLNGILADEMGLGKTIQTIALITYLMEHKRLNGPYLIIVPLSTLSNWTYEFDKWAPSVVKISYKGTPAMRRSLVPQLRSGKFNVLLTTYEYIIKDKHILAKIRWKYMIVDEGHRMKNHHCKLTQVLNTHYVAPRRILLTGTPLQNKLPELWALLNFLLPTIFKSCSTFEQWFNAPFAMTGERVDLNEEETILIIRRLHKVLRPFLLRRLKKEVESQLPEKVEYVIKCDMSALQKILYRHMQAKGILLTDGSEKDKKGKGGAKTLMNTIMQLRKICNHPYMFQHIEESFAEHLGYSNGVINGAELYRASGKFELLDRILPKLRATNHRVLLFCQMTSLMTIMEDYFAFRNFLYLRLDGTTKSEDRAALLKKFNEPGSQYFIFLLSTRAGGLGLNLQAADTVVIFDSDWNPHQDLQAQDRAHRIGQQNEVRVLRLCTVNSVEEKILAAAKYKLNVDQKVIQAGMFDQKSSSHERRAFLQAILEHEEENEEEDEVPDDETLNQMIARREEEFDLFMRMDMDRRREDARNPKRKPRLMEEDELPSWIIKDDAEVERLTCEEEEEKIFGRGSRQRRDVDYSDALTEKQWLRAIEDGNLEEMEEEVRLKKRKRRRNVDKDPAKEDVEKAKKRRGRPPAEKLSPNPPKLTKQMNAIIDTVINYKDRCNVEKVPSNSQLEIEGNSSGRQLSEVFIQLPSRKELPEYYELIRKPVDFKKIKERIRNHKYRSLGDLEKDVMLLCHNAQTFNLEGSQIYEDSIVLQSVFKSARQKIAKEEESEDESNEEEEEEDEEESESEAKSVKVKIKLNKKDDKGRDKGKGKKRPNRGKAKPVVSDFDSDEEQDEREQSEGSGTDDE
Measurement name: Dmax (%)

Recorded results for 3 molecules are shown here.
Molecule	Assay system	Value observed
CCN(C(=O)C1(c2ccccc2)CCN(c2cnnc(-c3ccccc3O)c2)CC1)C1CCN(CCC2CCN(c3ccc([C@H]4CCC(=O)NC4=O)cc3)CC2)CC1	SMARCA2 (Homo sapiens, UniProt P51531)	94.4
O=C1CCC(c2c(F)cc(N3CCC(CN4CCC5(CC4)CN(C(=O)C4(c6ccccc6)CCN(c6cnnc(-c7ccccc7O)c6)CC4)C5)CC3)cc2F)C(=O)N1 (racemic)	SMARCA2 (Homo sapiens, UniProt P51531)	94.9
O=C1CC[C@H](c2ccc(N3CCC(CNC4CCN(C(=O)C5(Oc6ccccc6)CCN(c6cnnc(-c7ccccc7O)c6)CC5)CC4)CC3)cc2)C(=O)N1	SMARCA2 (Homo sapiens, UniProt P51531)	77.2

[a] CN(C(=O)C1(Oc2ccn(C)n2)CCN(c2cnnc(-c3ccccc3O)c2)CC1)C1CCN(CC2CCN(c3ccc([C@H]4CCC(=O)NC4=O)cc3)CC2)CC1
[b] O=C1CCC(c2ccc(OC3CCN(C(=O)C4CCN(C(=O)C5(c6ccccc6)CCN(c6cnnc(-c7ccccc7O)c6)CC5)CC4)CC3)cc2)C(=O)N1 (racemic)
Inquiry: Looking at a and b , which one comes out lower in Dmax terms? Respond using the label that marks the chosen record.
Reply text: b

----------
target: SMARCA4 (Homo sapiens, UniProt P51532); construct: endogenous in cells; experiment: Cellular degradation assay, SMARCA4 (Table 1); format: cell-based
Sequence (P51532 whole entry, species assumed): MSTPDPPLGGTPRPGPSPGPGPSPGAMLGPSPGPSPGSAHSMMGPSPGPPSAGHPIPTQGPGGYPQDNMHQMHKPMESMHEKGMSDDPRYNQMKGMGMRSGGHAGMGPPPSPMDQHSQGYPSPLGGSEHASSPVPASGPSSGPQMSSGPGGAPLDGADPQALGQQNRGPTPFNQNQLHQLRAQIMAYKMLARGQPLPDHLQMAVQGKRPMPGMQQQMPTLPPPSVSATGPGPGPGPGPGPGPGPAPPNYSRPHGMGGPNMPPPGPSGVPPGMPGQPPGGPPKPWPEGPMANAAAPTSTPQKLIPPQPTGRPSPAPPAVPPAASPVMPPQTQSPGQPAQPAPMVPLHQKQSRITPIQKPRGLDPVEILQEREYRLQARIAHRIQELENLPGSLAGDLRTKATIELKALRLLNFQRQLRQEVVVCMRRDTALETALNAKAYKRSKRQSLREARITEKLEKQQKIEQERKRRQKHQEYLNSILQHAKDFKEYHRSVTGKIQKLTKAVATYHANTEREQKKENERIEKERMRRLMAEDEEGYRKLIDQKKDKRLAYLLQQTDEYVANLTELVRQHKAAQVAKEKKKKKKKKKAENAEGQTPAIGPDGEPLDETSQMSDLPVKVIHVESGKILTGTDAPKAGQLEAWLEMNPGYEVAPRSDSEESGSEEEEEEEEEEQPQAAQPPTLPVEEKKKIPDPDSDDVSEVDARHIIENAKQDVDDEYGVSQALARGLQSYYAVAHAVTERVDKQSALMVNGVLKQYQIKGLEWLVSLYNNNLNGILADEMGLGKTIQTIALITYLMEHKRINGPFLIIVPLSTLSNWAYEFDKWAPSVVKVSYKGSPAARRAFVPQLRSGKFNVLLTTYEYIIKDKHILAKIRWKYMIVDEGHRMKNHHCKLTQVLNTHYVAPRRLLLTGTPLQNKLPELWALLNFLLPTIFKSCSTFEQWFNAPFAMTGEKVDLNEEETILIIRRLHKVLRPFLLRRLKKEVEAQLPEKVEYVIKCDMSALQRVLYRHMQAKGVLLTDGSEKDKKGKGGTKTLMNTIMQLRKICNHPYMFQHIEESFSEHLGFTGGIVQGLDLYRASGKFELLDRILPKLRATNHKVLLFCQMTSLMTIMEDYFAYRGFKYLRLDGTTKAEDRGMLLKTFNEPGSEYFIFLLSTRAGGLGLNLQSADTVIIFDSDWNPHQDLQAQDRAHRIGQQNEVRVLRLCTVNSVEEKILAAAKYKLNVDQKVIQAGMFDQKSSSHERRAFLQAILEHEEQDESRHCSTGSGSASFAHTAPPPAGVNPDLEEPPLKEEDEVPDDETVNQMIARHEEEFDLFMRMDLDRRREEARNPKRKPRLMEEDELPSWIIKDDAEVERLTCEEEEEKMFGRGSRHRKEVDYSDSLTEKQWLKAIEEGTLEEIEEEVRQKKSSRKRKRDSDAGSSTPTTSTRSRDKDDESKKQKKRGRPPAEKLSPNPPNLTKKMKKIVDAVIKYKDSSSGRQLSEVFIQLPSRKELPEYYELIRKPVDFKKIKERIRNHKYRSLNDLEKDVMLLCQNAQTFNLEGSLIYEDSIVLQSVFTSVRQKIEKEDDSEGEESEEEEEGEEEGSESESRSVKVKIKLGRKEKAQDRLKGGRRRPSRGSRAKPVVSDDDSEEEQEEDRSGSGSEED
Measurement name: Dmax (%)

Recorded results for 5 compounds are shown here.
Compound	Measurement name	Value observed
O=C1CC[C@@H](c2ccc(O[C@H]3CC[C@H](CN4CC5(C4)CN(C(=O)C4(c6ccccc6)CCN(c6cnnc(-c7ccccc7O)c6)CC4)C5)CC3)cc2)C(=O)N1 (racemic)	Dmax	35.2
O=C1CC[C@H](c2ccc(N3CCC(CN4CC5CC(NC(=O)C6(c7ccccc7)CCN(c7cnnc(-c8ccccc8O)c7)CC6)C4C5)CC3)cc2)C(=O)N1 (stereo partly shown)	Dmax	2.09
CN(C(=O)C1(c2cc3ccccn3n2)CCN(c2cnnc(-c3ccccc3O)c2)CC1)C1CCN(CC2CCN(c3ccc(C4CCC(=O)NC4=O)cc3)CC2)CC1 (racemic)	Dmax	65.8
O=C1CC[C@H](n2ccc3cc(N4CCC(CN5CCC(NC(=O)C6(c7ccccc7)CCN(c7cnnc(-c8ccccc8O)c7)CC6)CC5)CC4)ccc3c2=O)C(=O)N1	Dmax	82.6
Cc1cnn(C2(C(=O)N(C)C3CCN(CC4CCN(c5ccc([C@H]6CCC(=O)NC6=O)cc5)CC4)CC3)CCN(c3cnnc(-c4ccccc4O)c3)CC2)c1	Dmax	65.6

[I] CN(C(=O)C1(c2ccccc2)CCN(c2cnnc(-c3ccccc3O)c2)CC1)C1CCN([C@H]2COC3(CCN(c4ccc([C@H]5CCC(=O)NC5=O)cc4)CC3)C2)CC1 (single isomer, unassigned)
[II] CC(N[C@H]1CC[C@@H](NC(=O)C2(c3ccccc3)CCN(c3cnnc(-c4ccccc4O)c3)CC2)CC1)C1CCN(c2ccc([C@H]3CCC(=O)NC3=O)cn2)CC1 (mixture of isomers)
Inquiry: Between the two listed entries I and II , which has its Dmax at the higher number? Respond using the label that marks the chosen record.
Reply text: II
(II: 64.5%, I: 41%)

[I] Cc1ccnn1C1(C(=O)N(C)C2CCN(CC3CCN(c4ccc(C5CCC(=O)NC5=O)cc4)CC3)CC2)CCN(c2cnnc(-c3ccccc3O)c2)CC1 (racemic)
[II] Cc1ccnn1C1(C(=O)N(C)C2CCN(C3COC4(CCN(c5ccc([C@H]6CCC(=O)NC6=O)cc5)CC4)C3)CC2)CCN(c2cnnc(-c3ccccc3O)c2)CC1 (mixture of isomers)
[III] Cn1c(=O)n(C2CCC(=O)NC2=O)c2ccc(N3CCC(CN4CCC(NC(=O)C5(c6ccccc6)CCN(c6cnnc(-c7ccccc7O)c6)CC5)CC4)CC3)cc21 (racemic)
Inquiry: Please rank these compounds by Dmax in descending order. # output: labels, in the requested order
Reply text: III, I, II
(III: 88.5%, I: 60%, II: 32.2%)

[P] CN(C(=O)C1(c2ccccc2)CCN(c2cnnc(-c3ccccc3O)c2)CC1)C1CCN(CC2CCN(c3cccc([C@@H]4CCC(=O)NC4=O)c3)CC2)CC1 (racemic)
[Q] O=C1CC[C@@H](c2ccc(OCC3CCN(CC4CCN(C(=O)C5(c6ccccc6)CCN(c6cnnc(-c7ccccc7O)c6)CC5)CC4)CC3)cc2)C(=O)N1
Inquiry: Between the two listed entries P and Q , which has its Dmax at the higher number? Respond using the label that marks the chosen record.
Reply text: P

[1] O=C1CC[C@H](c2ccc(C3CCN(CC(=O)N4CCC(S(=O)(=O)NCC5(c6ccccc6)CCN(c6cnnc(-c7ccccc7O)c6)CC5)CC4)CC3)cc2)C(=O)N1 (racemic)
[2] O=C1CCC(c2ccc(OCC3CCN(C(=O)C4(c5ccccc5)CCN(c5cnnc(-c6ccccc6O)c5)CC4)CC3)cc2)C(=O)N1 (racemic)
Inquiry: Looking at 1 and 2 , which one comes out lower in Dmax terms? Respond using the label that marks the chosen record.
Reply text: 2
(2: 22.6%, 1: 67.1%)

----------
target: SMARCA2 (Homo sapiens); construct: endogenous in cells; assay: SMARCA2 Cellular Degradation Assay (Western blot analysis on Jess platform); assay type: cell-based; settings: cellular degradation
Measurement name: Dmax (%)

Recorded results for 3 compounds are shown here.
Compound	Assay system	Dmax, %
Cn1c(=O)n([C@H]2CCC(=O)NC2=O)c2cccc(N3CCC(C(=O)N4C[C@@H]5[C@H](C4)[C@H]5C(=O)NCC4(c5ccccc5)CCN(c5cnnc(-c6ccccc6O)c5)CC4)CC3)c21 (racemic)	SMARCA2 (Homo sapiens)	95.8
COC1(C(=O)N(C)C2CCN(CCC3CCN(c4ccc([C@H]5CCC(=O)NC5=O)cc4)CC3)CC2)CCN(c2cnnc(-c3ccccc3O)c2)CC1	SMARCA2 (Homo sapiens)	74
O=C1CC[C@H](c2ccc(N3CCC(CN4CCC(NC(=O)C5(c6ccccn6)CCN(c6cnnc(-c7ccccc7O)c6)CC5)CC45CCC5)CC3)cc2)C(=O)N1 (some centres unmarked)	SMARCA2 (Homo sapiens)	82.5

[P] CN(C(=O)C1(c2ccccc2)CCN(c2cnnc(-c3ccccc3O)c2)CC1)C1CCN(CCC2CCN(c3ccc([C@H]4CCC(=O)NC4=O)cc3)CC2)CC1
[Q] CC1(C(=O)N2CC3(CN(CC4CCN(c5ccc([C@H]6CCC(=O)NC6=O)cc5)CC4)C3)C2)CCN(c2cnnc(-c3ccccc3O)c2)CC1
Inquiry: Between the two listed entries P and Q , which has its Dmax at the higher number? Respond using the label that marks the chosen record.
Reply text: P

----------
target: SMARCA4 (Homo sapiens); construct: endogenous in cells; experiment: Cellular degradation assay, SMARCA4 (Table 1); format: cell-based
Measurement name: Dmax (%)

Recorded results for 3 compounds are shown here.
Compound	Assay system	Result units	Value observed
Cc1ccccc1C1(C(=O)N2CC3(CN(CC4CCN(c5ccc(C6CCC(=O)NC6=O)cc5)CC4)C3)C2)CCN(c2cnnc(-c3ccccc3O)c2)CC1 (racemic)	SMARCA4 (Homo sapiens)	%	56
CN(C(=O)C1(c2ccccc2)CCN(c2cnnc(-c3ccccc3O)c2)CC1)C1CCN(CC2CCN(c3ccc([C@H]4CCC(=O)NC4=O)cc3)CC2)C2(CCCCC2)C1 (mixture of isomers)	SMARCA4 (Homo sapiens)	%	86.2
O=C1CC[C@H](c2ccc(N3CC[C@]4(C3)C[C@@H](N3CC5(CCN(C(=O)C6(c7ccccc7)CCN(c7cnnc(-c8ccccc8O)c7)CC6)CC5)C3)C4)cc2)C(=O)N1 (racemic)	SMARCA4 (Homo sapiens)	%	61

[I] Cc1ccnn1C1(C(=O)N(C)C2CCN(CCC3CCN(c4cccc5c4n(C)c(=O)n5C4CCC(=O)NC4=O)CC3)CC2)CCN(c2cnnc(-c3ccccc3O)c2)CC1 (racemic)
[II] CN(C(=O)C1(c2ccccc2)CCN(c2cnnc(-c3ccccc3O)c2)CC1)C1CCN([C@@H]2COC3(CCN(c4ccc([C@H]5CCC(=O)NC5=O)cc4)CC3)C2)CC1 (single isomer, unassigned)
Inquiry: Between the two listed entries I and II , which has its Dmax at the higher number? Respond using the label that marks the chosen record.
Reply text: I
(I: 86.8%, II: 41.4%)

----------
molecular target: SMARCA2 (Homo sapiens, UniProt P51531); construct: endogenous in cells; experiment: SMARCA2 Cellular Degradation Assay (Western blot analysis on Jess platform); type: cell-based; settings: cellular degradation
Measurement name: Dmax (%)

Recorded results for 5 compounds are shown here.
Compound	Measurement name	Result units	Value observed
O=C1CC[C@H](c2ccc(N3CCC(CN4CC5(C4)CN(C(=O)C4(c6ccccc6)CCN(c6cnnc(-c7ccccc7O)c6)CC4)C5)CC3)cc2)C(=O)N1	Dmax	%	79.9
Cc1ccn(C2(C(=O)NC3CCN(CC4CCN(c5ccc([C@H]6CCC(=O)NC6=O)cc5)CC4)C4(CCC4)C3)CCN(c3cnnc(-c4ccccc4O)c3)CC2)n1 (some centres unmarked)	Dmax	%	84.7
O=C1CCC(c2ccc(N3CCC(CCN4CC5(C4)CN(C(=O)C4(c6cc7ccccn7n6)CCN(c6cnnc(-c7ccccc7O)c6)CC4)C5)CC3)cc2)C(=O)N1 (racemic)	Dmax	%	60
O=C1CC[C@H](c2ccc(N3CCC(CCN4CC5CCC(C4)C5C(=O)NCC4(c5ccccc5)CCN(c5cnnc(-c6ccccc6O)c5)CC4)CC3)cc2)C(=O)N1 (mixture of isomers)	Dmax	%	93.7
CN(C(=O)CN1CCN(c2ccc([C@H]3CCC(=O)NC3=O)cc2)CC1)[C@H]1CC[C@H](NC(=O)C2(Oc3ccccc3)CCN(c3cnnc(-c4ccccc4O)c3)CC2)CC1 (racemic)	Dmax	%	62

[I] CN(C(=O)C1(OC2CC2)CCN(c2cnnc(-c3ccccc3O)c2)CC1)C1CCN(CCC2CCN(c3ccc(C4CCC(=O)NC4=O)cc3)CC2)CC1 (racemic)
[II] O=C1CCC(c2ccc(N3CCN(C(=O)CC4CCN(C(=O)C5(c6ccccc6)CCN(c6cnnc(-c7ccccc7O)c6)CC5)CC4)CC3)cc2)C(=O)N1 (racemic)
Inquiry: Between the two listed entries I and II , which has its Dmax at the higher number? Respond using the label that marks the chosen record.
Reply text: I

All values here come from patent US20250051344A1.
